Target: T1, human SEMG2 full-length protein (human, UniProt Q02383 24-582, limits assumed)
T1 construct: also called SEMG2 protein; semenogelin 2
T1 sequence: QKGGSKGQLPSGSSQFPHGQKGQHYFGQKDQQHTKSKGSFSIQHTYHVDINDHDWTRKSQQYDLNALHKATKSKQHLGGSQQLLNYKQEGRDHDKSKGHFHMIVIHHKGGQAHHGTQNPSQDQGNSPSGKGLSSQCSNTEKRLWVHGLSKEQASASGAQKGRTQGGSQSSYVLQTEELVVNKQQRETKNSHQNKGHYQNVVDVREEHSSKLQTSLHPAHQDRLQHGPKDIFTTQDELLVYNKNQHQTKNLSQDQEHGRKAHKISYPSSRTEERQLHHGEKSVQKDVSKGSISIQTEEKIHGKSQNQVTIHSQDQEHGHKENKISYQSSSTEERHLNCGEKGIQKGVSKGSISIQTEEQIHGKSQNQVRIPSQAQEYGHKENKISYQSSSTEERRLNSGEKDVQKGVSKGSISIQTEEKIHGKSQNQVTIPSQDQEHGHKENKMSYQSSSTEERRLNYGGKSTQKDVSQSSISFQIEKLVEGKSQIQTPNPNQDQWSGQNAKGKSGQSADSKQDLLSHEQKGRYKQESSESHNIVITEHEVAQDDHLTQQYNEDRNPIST
Assay: ELISA, plate coated with SEMG2 protein, anti-mouse secondary antibody; the EC50 table prints no unit, the axis is log (antibody concentration, nM)
// reported pEC50 for each item listed
Friendly reminder that pEC50 comes from taking -log10 of the concentration in mol/L.

>  <binder>
MM02 (antibody, IgG2b, V domains shown) VH: QIQLVQSGPEVKKPGETVRISCKASGYTLTTAGIQWVQKMPGKGLKWIGWINTHSGVPEYAEDFKGRFAFFLETSASTAYLQISNLKNEDTATYFCARLGLLGYWGQGTTLTVSS VL: DILLTQSPAILSVSPGERVSFSCRASQSIGTTIHWYQQRTNGSPRLLIKYASESISGIPSRFSGSGSGTDFTLSINSVESEDIADYYCQQSNSWPWTFGGGTKLEIKR

>  <pEC50>
9.75

$$$$

What measured pEC50 goes with MM08 (antibody, IgG1, V domains shown) VH: QVQLQQPGAELVRPGASVKLSCKSSDYTFTRYWMNWVKQRPGQGLEWIGMIDPSDSETHHNQMFKDKATLTVDKSSSTAYMQLSSLTSEDSAVYFCARYLGGKEGSFDYWGQGTTLTVSS VL: DIVLTQSPSSLAVSAGERVTMSCKSSQSLFNSRTRKNYLAWYQQKPGQSPKLLLYWASTRESGVPDRFTGSGSGTDFTLTISSVKTEDLAVYYCKQSYELPWTFGGGTKLEMKR ? 9.38

Entry under review: MM15 (antibody, IgG2a, V domains shown) VH: QVQLKESGPGLVAPSQSLSITCTVSGFSLTRYGVSWVRQTPGKGLEWLGIIWGDGSTNYHSALISRLSISKDNSKSQVFLKLNSLQTDDTATYYCAKQERFSDGYYDGFAYWGQGTLVTVSA VL: QIVLTQSPAIMSASPGEKVTITCSASSSVSYMHWFQQKPGTSPKLWIYSTSNLASGVPARFSGSGSGTSYSLTISRMEAEDAATYYCQQRSSYPFTFGSGTKLEIKR . Reported pEC50? 9.35

Which pEC50 value is on record for MM05 (antibody, IgG1, V domains shown) VH: QVQLQQPGAELVRPGASVKLSCEASGYTFTSYWMNWVKQRPGQGLEWIGMIDPSDSETHYNQMFKDKATLTVDKSSSTAYMQLSSLTSEDSAVYYCARYLGGKEGSFDYWGQGTTLTVSS VL: DIVMSQSPSSLAVSAGEKVTMSCKSSQSLLNSRTRKNYLAWYQQKPGQSPKLLIYWASTRESGVPDRFTGSGSGTDFTLTISSVQAEDLAVYYCKQSYSLPWTFGGGTKLEIKR ? 9.27

Given MM14 (antibody, IgG2b, V domains shown) VH: QVQLKESGPGLVAPSQSLSITCTVSGFSLTSYAVSWVRQPPGKGLEWLGIIWGDGSTNYHSALISRLSISKDNSKSQVFLKLNSLQTDDTATYYCAKQERFSDGYYDGFAYWGQGTLVTVSA VL: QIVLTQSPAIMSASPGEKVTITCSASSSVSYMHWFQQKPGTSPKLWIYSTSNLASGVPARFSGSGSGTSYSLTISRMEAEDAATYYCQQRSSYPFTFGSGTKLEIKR , state its recorded pEC50. 9.30

Sourced from patent US20230080534A1
